- Test system: MM96L melanoma cells
- assayInfo: Cell survival assay (clonogenic survival, SRB)
- Type: cell-based, human
- runParameters: Table 5; Selectivity Index = IC50 (NFF)/IC50 (MM96L)
measuredEndpoint: Selectivity

                                smilesentry  measuredendpoint  recordedvalue
0  O=C(CCCSC[C@H](NC(=O)C1CC1)C(=O)NCc1ccccc1)NO       Selectivity             >5
1  O=C(CCCSC[C@H](NC(=O)Cc1cccc([N+](=O)[O-])c1)C(=O)NCc1ccccc1)NO       Selectivity             >8

Proceed to the following item.
Q: Given the compound O=C(CCCSC[C@H](NC(=O)c1ccccc1[N+](=O)[O-])C(=O)NCc1ccccc1)NO , what is its reported Selectivity?
A: >10

* * *

- Tested on: NFF, neonatal foreskin fibroblasts
- assayInfo: Cell survival assay (clonogenic survival, SRB), normal cells
- Format: cell-based, human
- runParameters: Homo sapiens, Fibroblast, 24 h, Table 6; 24 hours with compound, further growth, SRB; read-out: IC50 (μM) NFF
measuredEndpoint: IC50 (µM)
Answer with a number only, understood to be in µM.

Solved cases (6 shown):
>>> print(df.to_string())
                                smilesentry                          targetdesc  recordedvalue
0  CN(C)c1ccc(C(=O)N[C@@H](CSCCCC(=O)NO)C(=O)Nc2cccc3scnc23)cc1  NFF, neonatal foreskin fibroblasts            3.3
1  CN(C)c1ccc(C(=O)N[C@@H](CSCCCC(=O)NO)C(=O)N2CCCCC2)cc1  NFF, neonatal foreskin fibroblasts             20
2  CN(C)c1ccc(C(=O)N[C@@H](CSCCCC(=O)NO)C(=O)Nc2ccc3cc4ccccc4cc3c2)cc1  NFF, neonatal foreskin fibroblasts           1.14
3  CC(=O)c1cccc(NC(=O)[C@H](CSCCCC(=O)NO)NC(=O)c2ccc(N(C)C)cc2)c1  NFF, neonatal foreskin fibroblasts            1.6
4  CN(C)c1ccc(C(=O)N[C@@H](CSCCCC(=O)NO)C(=O)NCc2ccncc2)cc1  NFF, neonatal foreskin fibroblasts             14
5  CN(C)c1ccc(C(=O)N[C@@H](CSCCCC(=O)NO)C(=O)Nc2ccncc2)cc1  NFF, neonatal foreskin fibroblasts            7.2

Q: Given the compound CN(C)c1ccc(C(=O)N[C@@H](CSCCCC(=O)NO)C(=O)Nc2ccc(-c3ccccc3)cc2)cc1 , what is its reported IC50?
A: 0.32

Q: Given the compound CN(C)c1ccc(C(=O)N[C@@H](CSCCCC(=O)NO)C(=O)Nc2cccc3ccccc23)cc1 , what is its reported IC50?
A: 5.9

Q: Given the compound CN(C)c1ccc(C(=O)N[C@@H](CSCCCC(=O)NO)C(=O)NC2CCN(Cc3ccccc3)CC2)cc1 , what is its reported IC50?
A: 1.28
